# System: BV-173 (Chronic Myelogenous Leukemia)
# Assay Notes: combination Emax (second highest fraction inhibited in the dose matrix, 72 h); higher = more inhibition; extreme values may be limits of the assay
Provide the reported combination Emax of each item.
One number for each entry.

1. Cc1c2c(nn1C)CSCc1cc(n(C)n1)CSc1cc(c3ccccc3c1)OCCCc1c(C(=O)O)n(C)c3c-2c(Cl)ccc13 [AZD5991] + Cc1cc2ncnn2cc1Nc1ncc2c(n1)n(C1CCOCC1)c(=O)n2C [AZD7648] (first compound max 1 µM, 7x7, partner max 10 µM)	0.946
2. CCN(CCO)CCCOc1ccc2c(Nc3cc(CC(=O)Nc4cccc(F)c4)[nH]n3)ncnc2c1 [AZD2811] + C[C@@H]1COCCN1C2=NC(=NC(=C2)C3(CC3)[S@](=N)(=O)C)C4=C5C=CNC5=NC=C4 [AZD6738] (first compound max 1 µM, 7x7, partner max 10 µM)	0.994
3. Cc1c2c(nn1C)CSCc1cc(n(C)n1)CSc1cc(c3ccccc3c1)OCCCc1c(C(=O)O)n(C)c3c-2c(Cl)ccc13 [AZD5991] + C1CN(CCC1(C(=O)N[C@@H](CCO)C2=CC=C(C=C2)Cl)N)C3=NC=NC4=C3C=CN4 [Capivasertib] (first compound max 1 µM, 7x7, partner max 3 µM)	0.927
4. CC1(C)CCC(CN2CCN(c3ccc(C(=O)NS(=O)(=O)c4ccc(NCC5CCOCC5)c([N+](=O)[O-])c4)c(Oc4cnc5[nH]ccc5c4)c3)CC2)=C(c2ccc(Cl)cc2)C1 [Venetoclax] + COc1cc(Nc2ncc3c(n2)-c2ccc(Cl)cc2C(c2c(F)cccc2OC)=NC3)ccc1C(=O)O [Alisertib] (first compound max 1 µM, 7x7, partner max 10 µM)	0.971
5. Cc1c2c(nn1C)CSCc1cc(n(C)n1)CSc1cc(c3ccccc3c1)OCCCc1c(C(=O)O)n(C)c3c-2c(Cl)ccc13 [AZD5991] + C[C@@H]1COCCN1C2=NC(=NC(=C2)C3(CC3)[S@](=N)(=O)C)C4=C5C=CNC5=NC=C4 [AZD6738] (first compound max 1 µM, 7x7, partner max 10 µM)	0.965
6. CC1(C)CCC(CN2CCN(c3ccc(C(=O)NS(=O)(=O)c4ccc(NCC5CCOCC5)c([N+](=O)[O-])c4)c(Oc4cnc5[nH]ccc5c4)c3)CC2)=C(c2ccc(Cl)cc2)C1 [Venetoclax] + CN(C)CCCOc1ccc(-c2ccc3ncc4c(c3c2)n(C2CCOCC2)c(=O)n4C)cn1 [AZD0156] (first compound max 1 µM, 7x7, partner max 1 µM)	0.833

Please turn your attention to the following entry.
Q. Form field: reported combination Emax of CC1(C)CCC(CN2CCN(c3ccc(C(=O)NS(=O)(=O)c4ccc(NCC5CCOCC5)c([N+](=O)[O-])c4)c(Oc4cnc5[nH]ccc5c4)c3)CC2)=C(c2ccc(Cl)cc2)C1 [Venetoclax] + Cn1cnc2c(F)c(Nc3ccc(Br)cc3Cl)c(C(=O)NOCCO)cc21 [Selumetinib] (first compound max 1 µM, 7x7, partner max 3 µM)
A. 0.906
